Tested on: SNB-19 CNS
Assay Explanation: NCI tumour cell line growth inhibition, 48 h
Provide the reported GI50 of each item.

Field: example entries. Status: answers known.
Compound	Value Type	Test Result
COc1ccc2nc(-c3cc(-c4cc(OC)c(OC)c(OC)c4)n[nH]3)[nH]c2c1	GI50	2.98 µM
CC(C)=CCC[C@H](C)[C@@H]1CC[C@]2(C)C3CC[C@]4(OC4(C)C)C(CCCO)[C@]3(C)CC[C@@]12C (stereo partly drawn)	GI50	24 µM

Please give GI50, item by item, for the list that follows.
1. CCOc1cccc(/C=N/NC(=O)c2ccc(Nc3ccnc(C(F)(F)F)c3)cc2)c1O
2. COc1cc2c3c(n(CCCCOC(=O)C(F)(F)F)c(=O)c2cc1OC)-c1cc2c(cc1C3=O)OCO2
3. N#C/C(=C\c1ccc(-c2ccc(Cl)cc2)o1)C(=O)Nc1ncc(Cc2ccc(Cl)cc2)s1
4. O=C(Nc1ccccc1O)c1cccc(NC2=C(Cl)C(=O)N(Cc3ccccc3)C2=O)c1
5. CCOc1c(Br)cc(C2C(C(=O)OC)=CN(C)C=C2C(=O)OC)cc1OC
6. COc1ccc2c(c1)c(-c1ccc(-c3cn(S(=O)(=O)c4ccccc4)c4ccc(OC)cc34)s1)cn2S(=O)(=O)c1ccccc1
7. O=c1cc(-c2cccc(C(F)(F)F)c2)[nH]c2cc3c(cc12)OCO3
8. CCC[CH2][Sn]1([CH2]CCC)[O]C(=O)c2cc(I)cc(I)c2[O]1

["4.69 µM", "> 100 µM", "2.77 µM", "13.9 µM", "83.8 µM", "> 100 µM", "0.427 µM", "1.27 µM"]

Please give GI50, item by item, for the list that follows.
1. Cn1nccc1Nc1nccc(-c2cc3c(s2)C(C)(C)N(CCN2CCOCC2)C3=O)n1
2. Cc1cc(N2CCCCC2)nc(N(CCCNc2ccnc3cc(Cl)ccc23)Cc2ccco2)n1
3. COc1ccc2c(c1)C(=O)/C(=C/c1cccc(OCC(=O)Nc3nc4c(s3)CCCC4)c1)O2

1: 41.9 µM; 2: 2.93 µM; 3: 13.9 µM
